Test system: NF-κB
assay_method_text: Test for an Activity of Inhibiting NF-κB Activation (gel shift assay, UVB-irradiated human epidermal cells)
Assay type: cell-based
condition: light or radiation study, concentration 10 μM, read-out: inhibitory rate (%) of NF-κB activation
experimental_endpoint: inhibition at 10 µM (%)
Write down the numeric answer in % and omit the unit.

[[record]]
compound = "CCCCCCCCCCCCNC(=O)[C@H](CC(C)C)NCc1ccccc1O"
experimental_endpoint = "inhibition at 10 µM"
uom = "%"
test_value = 40

[[record]]
compound = "CCCCCCCCCCCCCCCCCCOC(=O)[C@H](C)NCc1ccccc1O"
experimental_endpoint = "inhibition at 10 µM"
uom = "%"
test_value = 31

[[record]]
compound = "CCCCCCCCCCCCNC(=O)[C@H](C)NCc1ccccc1O"
experimental_endpoint = "inhibition at 10 µM"
uom = "%"
test_value = 53

[[record]]
compound = "S=C(S)N1CCCC1 [pyrrolidinedithiocarbamate, reference compound]"
experimental_endpoint = "inhibition at 10 µM"
uom = "%"
test_value = 9


Turning now to a further compound:
Inquiry: Hi! What's the reported inhibition at 10 µM for CCCCCCCCCCCCOC(=O)[C@H](Cc1ccc(O)cc1)NCc1ccccc1O on NF-κB?
Reply text: 43
